Let's look at some molecules and their measured % increased stability.
# Tested on: ustekinumab
# METHOD DESCRIPTION: Urea denaturation, Sypro orange fluorescence (Example 44)
# Type: physicochemical
# MEASUREMENT PARAMETERS: excipient 5 mg/mL, ustekinumab 1 mg/mL, 6M urea, 20 mM histidine pH 6.0, Sypro orange fluorescence
READOUT: % increased stability (%)

# MOLECULE, UNIT ABBREV, RECORDED VALUE
records = [
    ("OC[C@H]1O[C@H](OC[C@H]2O[C@H](O[C@]3(CO)O[C@H](CO)[C@@H](O)[C@@H]3O)[C@H](O)[C@@H](O)[C@@H]2O)[C@H](O)[C@@H](O)[C@H]1O [Raffinose]", "%", 1.7),
    ("NCCCCNCCCN [Spermidine]", "%", 12.9),
    ("OC[C@@H](O)[C@H](O)[C@@H](O)CO [Xylitol]", "%", 6.3),
    ("NCCSSCCN [Cystamine]", "%", 8.8),
    ("NC[C@H]1O[C@H](O[C@H]2[C@H](O)[C@@H](O)[C@H](N)C[C@@H]2N)[C@H](N)[C@@H](O)[C@@H]1O [Neamine]", "%", 2.8),
    ("NC(=O)c1cccnc1 [Nicotinamide]", "%", 2.7),
    ("O=C(O)c1ccncc1 [isonicotinic acid]", "%", 4.4),
    ("NCCc1c[nH]c2ccccc12 [Tryptamine]", "%", 11.6),
    ("OC[C@H]1O[C@@](CO)(O[C@H]2O[C@H](CO)[C@@H](O)[C@H](O)[C@H]2O)[C@@H](O[C@H]2O[C@H](CO)[C@@H](O)[C@H](O)[C@H]2O)[C@@H]1O [Melzitose]", "%", 4.7),
]
